Origin of values: patent US20090124610A1

STUDY SYSTEM: PKB-PIF (Homo sapiens)
Construct: PIF (fusion partner)
TEST PROTOCOL: Measurement of PKB kinase inhibitory activity (IC50), 33P-ATP filter plate assay
CONDITION NOTES: 0.6 nM enzyme, 30 μM ATP/γ33P-ATP, 25 μM AKTide-2T substrate, 20 minutes
Where a name gives a salt, the structure may show the parent alone.
The entries below come with measured IC50 values attached.

1) CNCC(c1ccc(Cl)cc1)c1ccc(-c2ncnc3ccsc23)cc1 (centres unmarked) [Example 1, trifluoroacetate]    < 1 µM
2) NC1(Cc2ccc(Cl)cc2)CCN(c2ccnc3c2OCC(=O)N3)CC1 [Example 11]    < 5 µM
3) NC1(C(=O)NCc2ccc(Cl)cc2)CCN(c2ncnc3ccsc23)CC1 [Example 5]    < 1 µM
4) NC(c1ccc(Cl)cc1)C1CCN(c2ncnc3ccsc23)CC1 (centres unmarked) [Example 8]    < 1 µM
5) NCC(c1ccc(Cl)cc1)N1CCN(c2ncnc3ccsc23)CC1 (centres unmarked) [Example 3, formate]    < 1 µM

Exercise: Endpoint output: IC50 of NC1CCN(c2ncnc3ccsc23)CC1 [Example 6] . Value?
Solution: < 5 µM

Exercise: Endpoint output: IC50 of NC1CCN(c2ncnc3sccc23)CC1 [Example 9] . Value?
Solution: < 50 µM

====

STUDY SYSTEM: PKB-PIF (Homo sapiens, UniProt P31751)
Construct: PIF (fusion partner)
Sequence (P31751 with tags, fused parts or gaps limits assumed): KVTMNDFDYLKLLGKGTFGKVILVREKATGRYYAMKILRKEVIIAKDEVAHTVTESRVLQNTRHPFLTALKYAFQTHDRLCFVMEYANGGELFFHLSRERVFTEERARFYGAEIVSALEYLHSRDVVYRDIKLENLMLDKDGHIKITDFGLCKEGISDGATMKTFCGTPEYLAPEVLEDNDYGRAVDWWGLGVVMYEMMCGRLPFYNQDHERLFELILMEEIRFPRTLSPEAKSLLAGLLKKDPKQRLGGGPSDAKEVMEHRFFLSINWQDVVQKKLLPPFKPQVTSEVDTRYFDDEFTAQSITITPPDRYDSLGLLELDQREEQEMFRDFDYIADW
TEST PROTOCOL: Measurement of PKB kinase inhibitory activity (IC50), 33P-ATP filter plate assay
CONDITION NOTES: 0.6 nM enzyme, 30 μM ATP/γ33P-ATP, 25 μM AKTide-2T substrate, 20 minutes
Procedure: The inhibition of protein kinase B (PKB) activity by compounds can be determined determined essentially as described by Andjelkovic et al. (Mol. Cell. Biol. 19, 5061-5072 (1999)) but using a fusion protein described as PKB-PIF and described in full by Yang et al (Nature Structural Biology 9, 940-944 (2002)). […] After washing, scintillant is added and the incorporated activity measured by scintillation counting. […]
Counter-ions that a name gives are not always drawn.
The entries below come with measured IC50 values attached.

Here's what some known entries look like.
1. NC1CCN(c2ccnc3c2C(=O)C(=O)N3)CC1    < 50000 nM
2. NCCC(c1ccc(Cl)cc1)c1ccc(-c2ncnc3ccsc23)cc1 (stereo not shown)    < 1000 nM

Exercise: Endpoint output: IC50 of "NC1(Cc2ccc(Cl)cc2)CCN(c2ncnc3ccsc23)CC1" . Value?
Solution: < 1000 nM

Exercise: Endpoint output: IC50 of Clc1ccc(C2(c3ccc(-c4ncnc5ccsc45)cc3)CCNCC2)cc1 [Example 4, formate] . Value?
Solution: < 1000 nM
